- procedure_text: Plasma pharmacokinetics of BIA 10-2474 and metabolites
- Assay type: in vivo, human
- condition_parameters: human, plasma, oral, 2.5 mg, t1/2, 2.5 mg once daily, Day 1
experimental_endpoint: half-life (h)
All answers are understood in h, so give the number only.

// lookup half-life for CN(C(=O)n1cnc(-c2ccc[n+]([O-])c2)c1)C1CCCCC1 [BIA 10-2474]
6.73

----------
- procedure_text: Plasma pharmacokinetics of BIA 10-2474 and metabolites
- Format: in vivo, human
- condition_parameters: both, human, plasma, oral, 100 mg, AUC0–t, single dose 100 mg
experimental_endpoint: AUC(0-t) (ng·h/mL)
All answers are understood in ng·h/mL, so give the number only.

// lookup AUC(0-t) for `CN(C(=O)n1cnc(-c2ccc[n+]([O-])c2)c1)C1CCCCC1`
23000

----------
- procedure_text: Plasma pharmacokinetics of BIA 10-2474 and metabolites
- Format: in vivo, human
- condition_parameters: both, human, plasma, oral, 100 mg, Cmax, single dose 100 mg
experimental_endpoint: Cmax (ng/mL)
All answers are understood in ng/mL, so give the number only.

// lookup Cmax for CN(C(=O)n1cnc(-c2ccc[n+]([O-])c2)c1)C1CCCCC1 [BIA 10-2474]
1770

----------
- procedure_text: Plasma pharmacokinetics of BIA 10-2474 and metabolites
- Assay type: in vivo, human
- condition_parameters: human, plasma, oral, 10 mg, AUC0–t, single dose 10 mg
experimental_endpoint: AUC(0-t)

// lookup AUC(0-t) for `CN(C(=O)n1cnc(-c2ccc[n+]([O-])c2)c1)C1CCCCC1`
1440 ng·h/mL

----------
- procedure_text: Plasma pharmacokinetics of BIA 10-2474 and metabolites
- Type: in vivo, human
- condition_parameters: both, human, plasma, oral, 100 mg
experimental_endpoint: AUC(0-inf) (ng·h/mL)
All answers are understood in ng·h/mL, so give the number only.

// lookup AUC(0-inf) for `CN(C(=O)n1cnc(-c2ccc[n+]([O-])c2)c1)C1CCCCC1`
23200

----------
- procedure_text: Plasma pharmacokinetics of BIA 10-2474 and metabolites
- Format: in vivo, human
- condition_parameters: human, plasma, oral, 20 mg, tmax, 20 mg once daily, Day 1
experimental_endpoint: Tmax (h)
All answers are understood in h, so give the number only.

// lookup Tmax for CN(C(=O)n1cnc(-c2ccc[n+]([O-])c2)c1)C1CCCCC1 [BIA 10-2474]
1.5

----------
- procedure_text: Plasma pharmacokinetics of BIA 10-2474 and metabolites
- Type: in vivo, human
- condition_parameters: human, plasma, oral, 20 mg, CL, 20 mg once daily, Day 1
experimental_endpoint: clearance (mL/min)
All answers are understood in mL/min, so give the number only.

// lookup clearance for `CN(C(=O)n1cnc(-c2ccc[n+]([O-])c2)c1)C1CCCCC1`
100

----------
- procedure_text: Plasma pharmacokinetics of BIA 10-2474 and metabolites
- Assay type: in vivo, human
- condition_parameters: human, plasma, oral, 50 mg, AUC0–t, 50 mg once daily, Day 1
experimental_endpoint: AUC(0-t)
Put your answer as a value accompanied by its unit after it.

// lookup AUC(0-t) for `CN(C(=O)n1cnc(-c2ccc[n+]([O-])c2)c1)C1CCCCC1`
7770 ng·h/mL

----------
- procedure_text: Plasma pharmacokinetics of BIA 10-2474 and metabolites
- Assay type: in vivo, human
- condition_parameters: both, human, plasma, oral, 1.25 mg
experimental_endpoint: AUC(0-inf) (µg·h/mL)
All answers are understood in µg·h/mL, so give the number only.

// lookup AUC(0-inf) for CN(C(=O)n1cnc(-c2ccc[n+]([O-])c2)c1)C1CCCCC1 [BIA 10-2474]
0.142

----------
- procedure_text: Plasma pharmacokinetics of BIA 10-2474 and metabolites
- Type: in vivo, human
- condition_parameters: human, plasma, oral, 10 mg, t1/2, 10 mg once daily, Day 10
experimental_endpoint: half-life (h)
All answers are understood in h, so give the number only.

// lookup half-life for `CN(C(=O)n1cnc(-c2ccc[n+]([O-])c2)c1)C1CCCCC1`
9.09

----------
- procedure_text: Plasma pharmacokinetics of BIA 10-2474 and metabolites
- Assay type: in vivo, human
- condition_parameters: human, plasma, oral, 20 mg, Cmax, 20 mg once daily, Day 1
experimental_endpoint: Cmax (ng/mL)
All answers are understood in ng/mL, so give the number only.

// lookup Cmax for `CN(C(=O)n1cnc(-c2ccc[n+]([O-])c2)c1)C1CCCCC1`
290

----------
- procedure_text: Plasma pharmacokinetics of BIA 10-2474 and metabolites
- Assay type: in vivo, human
- condition_parameters: both, human, plasma, oral, 1.25 mg, CL, single dose 1.25 mg
experimental_endpoint: clearance (mL/min)
All answers are understood in mL/min, so give the number only.

// lookup clearance for `CN(C(=O)n1cnc(-c2ccc[n+]([O-])c2)c1)C1CCCCC1`
155

----------
- procedure_text: Plasma pharmacokinetics of BIA 10-2474 and metabolites
- Format: in vivo, human
- condition_parameters: human, plasma, oral, 5 mg, CL, 5 mg once daily, Day 1
experimental_endpoint: clearance (mL/min)
All answers are understood in mL/min, so give the number only.

// lookup clearance for `CN(C(=O)n1cnc(-c2ccc[n+]([O-])c2)c1)C1CCCCC1`
125

----------
- procedure_text: Plasma pharmacokinetics of BIA 10-2474 and metabolites
- Format: in vivo, human
- condition_parameters: human, plasma, oral, 10 mg, t1/2, 10 mg once daily, Day 1
experimental_endpoint: half-life (h)
All answers are understood in h, so give the number only.

// lookup half-life for CN(C(=O)n1cnc(-c2ccc[n+]([O-])c2)c1)C1CCCCC1 [BIA 10-2474]
7.12

----------
- procedure_text: Plasma pharmacokinetics of BIA 10-2474 and metabolites
- Assay type: in vivo, human
- condition_parameters: human, plasma, oral, 2.5 mg, t1/2, 2.5 mg once daily, Day 10
experimental_endpoint: half-life (h)
All answers are understood in h, so give the number only.

// lookup half-life for CN(C(=O)n1cnc(-c2ccc[n+]([O-])c2)c1)C1CCCCC1 [BIA 10-2474]
8.04

----------
- procedure_text: Plasma pharmacokinetics of BIA 10-2474 and metabolites
- Type: in vivo, human
- condition_parameters: human, plasma, oral, 20 mg, AUC0–τ, 20 mg once daily, Day 1
experimental_endpoint: AUC (ng·h/mL)
All answers are understood in ng·h/mL, so give the number only.

// lookup AUC for CN(C(=O)n1cnc(-c2ccc[n+]([O-])c2)c1)C1CCCCC1 [BIA 10-2474]
2980

----------
- procedure_text: Plasma pharmacokinetics of BIA 10-2474 and metabolites
- Format: in vivo, human
- condition_parameters: human, plasma, oral, 5 mg, CL, single dose 5 mg
experimental_endpoint: clearance (mL/min)
All answers are understood in mL/min, so give the number only.

// lookup clearance for `CN(C(=O)n1cnc(-c2ccc[n+]([O-])c2)c1)C1CCCCC1`
114

----------
- procedure_text: Plasma pharmacokinetics of BIA 10-2474 and metabolites
- Format: in vivo, human
- condition_parameters: human, plasma, oral, 5 mg, AUC0–τ, 5 mg once daily, Day 10
experimental_endpoint: AUC (ng·h/mL)
All answers are understood in ng·h/mL, so give the number only.

// lookup AUC for CN(C(=O)n1cnc(-c2ccc[n+]([O-])c2)c1)C1CCCCC1 [BIA 10-2474]
909

----------
- procedure_text: Plasma pharmacokinetics of BIA 10-2474 and metabolites
- Format: in vivo, human
- condition_parameters: repeated dose levels below 20 mg for 10 days
experimental_endpoint: plasma abundance of metabolite

// lookup plasma abundance of metabolite for `CN(C(=O)n1cnc(-c2cccnc2)c1)C1CCCCC1`
undetectable

// lookup plasma abundance of metabolite for `O=C(NC1CCCCC1)n1cnc(-c2ccc[n+]([O-])c2)c1`
undetectable

// lookup plasma abundance of metabolite for `CN(C(=O)n1cnc(-c2cccnc2)c1)[C@H]1CC[C@H](O)CC1`
undetectable

// lookup plasma abundance of metabolite for `CN(C(=O)n1cnc(-c2ccc[n+]([O-])c2)c1)[C@H]1CC[C@H](O)CC1`
undetectable

----------
- procedure_text: Plasma pharmacokinetics of BIA 10-2474 and metabolites
- Type: in vivo, human
- condition_parameters: human, plasma, oral, 5 mg, t1/2, 5 mg once daily, Day 1
experimental_endpoint: half-life (h)
All answers are understood in h, so give the number only.

// lookup half-life for `CN(C(=O)n1cnc(-c2ccc[n+]([O-])c2)c1)C1CCCCC1`
6.4

----------
- procedure_text: Plasma pharmacokinetics of BIA 10-2474 and metabolites
- Format: in vivo, human
- condition_parameters: both, human, plasma, oral, 1.25 mg, t1/2, single dose 1.25 mg
experimental_endpoint: half-life

// lookup half-life for `CN(C(=O)n1cnc(-c2ccc[n+]([O-])c2)c1)C1CCCCC1`
6.54 h
